- target-or-test-system: Aβ42 (Homo sapiens)
- assay-text: Th-T (thioflavin-T) assay of Aβ42 aggregation
- Type: biochemical
- condition-notes: head suffix _10 (concentration 10); reading M78
Kindly apply the following: MET if Th-T fluorescence of Aβ42 (sheet Fig. 7a), mean of three wells is less than 3, NOT MET in every other case.

For orientation, consider the following solved cases.
Inquiry: Does the reported Th-T fluorescence of Aβ42 (sheet Fig. 7a), mean of three wells of C=C1CC[C@@H]2[C@](C)(CC[C@H]3O[C@H](C=C(C)C)C[C@@]23C)[C@@H]1Cc1c(OC)oc(CO)c(C(=O)OC)c1=O [Compound 21] stay below 3?
Reply text: MET

Inquiry: For C=C1CCC2C(C)(CCC=C(C)C)C(O)CCC2(C)C1Cc1c(OC)oc(C)c(C(=O)OC)c1=O (centres unmarked) [Compound 14] , is the recorded Th-T fluorescence of Aβ42 (sheet Fig. 7a), mean of three wells below the cut-off of 3?
Reply text: MET

Inquiry: Th-T fluorescence of Aβ42 (sheet Fig. 7a), mean of three wells under 3? Item: C=C1CC[C@@H]2[C@](C)(CC[C@H]3O[C@H](C=C(C)C)C[C@@]23C)[C@@H]1Cc1c(OC)oc(CO)c(C)c1=O [Compound 20]
Reply text: NOT MET

Inquiry: State whether 3 exceeds Th-T fluorescence of Aβ42 (sheet Fig. 7a), mean of three wells recorded for C=C1CCC2C(C)(CCC=C(C)C)C(O)CCC2(C)C1Cc1c(OC)oc(CO)c(C(=O)OC)c1=O (centres unmarked) [Compound 13] .
Reply text: MET

Below: the item to evaluate.
Inquiry: For C=C1CCC2C(C)(CCC=C(C)C)C(O)CCC2(C)C1Cc1c(OC)oc(CO)c(C)c1=O (centres unmarked) [Compound 12] , is the recorded Th-T fluorescence of Aβ42 (sheet Fig. 7a), mean of three wells below the cut-off of 3?
Reply text: NOT MET

* * *

Listed here: items and their measured Fig. 7a Th-T reading, mean of three wells.
- target-or-test-system: Aβ42 (Homo sapiens, UniProt P05067)
- Sequence (P05067 672-713): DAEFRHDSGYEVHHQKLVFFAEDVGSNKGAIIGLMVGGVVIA
- assay-text: Th-T (thioflavin-T) assay of Aβ42 aggregation
- Format: biochemical
- condition-notes: column suffix _10; reading M90
Kindly provide the number alone.

Inquiry: Provide the documented Fig. 7a Th-T reading, mean of three wells with Aβ42 (Homo sapiens, UniProt P05067) as the system for `C=C1CC[C@@H]2[C@](C)(CC[C@H]3O[C@H](C=C(C)C)C[C@@]23C)[C@@H]1Cc1c(OC)oc(CO)c(C)c1=O`
Reply text: 3.344

Inquiry: Provide value of Fig. 7a Th-T reading, mean of three wells for this record tested with Aβ42 (Homo sapiens, UniProt P05067): C=C1CCC2C(C)(CCC=C(C)C)C(O)CCC2(C)C1Cc1c(OC)oc(C)c(C(=O)OC)c1=O (centres unmarked)
Reply text: 2.853

Inquiry: Item: C=C1CCC2C(C)(CCC=C(C)C)C(O)CCC2(C)C1Cc1c(OC)oc(CO)c(C)c1=O (centres unmarked) Test system: Aβ42 (Homo sapiens, UniProt P05067) Read-out: Fig. 7a Th-T reading, mean of three wells Value: ?
Reply text: 3.046

Inquiry: Lookup: Fig. 7a Th-T reading, mean of three wells / Aβ42 (Homo sapiens, UniProt P05067) / C=C1CCC2C(C)(CCC=C(C)C)C(O)CCC2(C)C1Cc1c(OC)oc(CO)c(C(=O)OC)c1=O (centres unmarked)
Reply text: 1.554

Could you now look at the following molecule, please?
Inquiry: Field: Fig. 7a Th-T reading, mean of three wells (Aβ42 (Homo sapiens, UniProt P05067)). Entry: `C=C1CC[C@@H]2[C@](C)(CC[C@H]3O[C@H](C=C(C)C)C[C@@]23C)[C@@H]1Cc1c(OC)oc(CO)c(C(=O)OC)c1=O`
Reply text: 1.591

These measurements were taken from paper PMC7156458.
